Sourced from ChEMBL document CHEMBL1121833

# Assay Text: Sweet potency as logarithm of sweet potency (log SP) relative to sucrose
# Format: functional
Recorded Metric: Log SP

{"Entry Smiles": "CC(=O)OC[C@@H](NC(=O)[C@H](N)CC(=O)O)C(C)C", "Recorded Metric": "Log SP", "Endpoint Value": 1.58}
{"Entry Smiles": "CC(C)C(=O)OC[C@@H](NC(=O)[C@H](N)CC(=O)O)C(C)C", "Recorded Metric": "Log SP", "Endpoint Value": 1.1}
{"Entry Smiles": "COC(=O)[C@@H](CC(=O)OC(C)(C)C)NC(=O)[C@H](N)CC(=O)O", "Recorded Metric": "Log SP", "Endpoint Value": 1.3}
{"Entry Smiles": "C[C@@H](COC(=O)C(C)(C)C)NC(=O)[C@H](N)CC(=O)O", "Recorded Metric": "Log SP", "Endpoint Value": 2.28}
{"Entry Smiles": "C=C(C)C(=O)OC[C@H](C)NC(=O)[C@H](N)CC(=O)O", "Recorded Metric": "Log SP", "Endpoint Value": 1.99}

====

# Assay Text: Sweet potency as logarithm of sweet potency (log SP) relative to sucrose
# Format: functional
Recorded Metric: Log SP

{"Compound": "COC(=O)C(NC(=O)[C@@H](N)CC(=O)O)C(=O)OCC1C2(C)CCC(C2)C1(C)C (stereo not given in full)", "Recorded Metric": "Log SP", "Endpoint Value": 4.79}
{"Compound": "CCC(=O)OC[C@H](C)NC(=O)[C@H](N)CC(=O)O", "Recorded Metric": "Log SP", "Endpoint Value": 1.86}
{"Compound": "CC[C@H](NC(=O)[C@H](N)CC(=O)O)C(=O)OC", "Recorded Metric": "Log SP", "Endpoint Value": 1.04}
{"Compound": "CC(C)OC(=O)[C@H](NC(=O)[C@@H](N)CC(=O)O)[C@H](C)O", "Recorded Metric": "Log SP", "Endpoint Value": 0.91}
{"Compound": "CCC(C)OC(=O)C[C@H](C)NC(=O)[C@H](N)CC(=O)O (stereo not given in full)", "Recorded Metric": "Log SP", "Endpoint Value": 0.6}

====

# Assay Text: Sweet potency as logarithm of sweet potency (log SP) relative to sucrose
# Assay type: functional
The threshold is 2. Values of Log SP beneath it are tagged class 1; values meeting or exceeding it are tagged class 0.

{"Molecule": "CC[C@H](NC(=O)[C@H](N)CC(=O)O)C(=O)OC(C)C", "Label Value": "class 0"}
{"Molecule": "CCOC(=O)C(NC(=O)[C@@H](N)CC(=O)O)C(=O)OCC1C2(C)CCC(C2)C1(C)C (stereo partly specified)", "Label Value": "class 0"}
{"Molecule": "C[C@@H](Cc1ccc(F)cc1)NC(=O)[C@H](N)CC(=O)O", "Label Value": "class 1"}
{"Molecule": "COC(=O)[C@H](NC(=O)[C@H](N)CC(=O)O)C(=O)OC1CCC(C)CC1 (stereo partly specified)", "Label Value": "class 1"}
{"Molecule": "N[C@H](CC(=O)O)C(=O)NCCC(=O)OC1CCCC1", "Label Value": "class 1"}
{"Molecule": "C[C@@H](COC(=O)C1CCCC1)NC(=O)[C@H](N)CC(=O)O", "Label Value": "class 1"}
{"Molecule": "CCC(C)OC(=O)CCNC(=O)[C@H](N)CC(=O)O (stereo partly specified)", "Label Value": "class 1"}
{"Molecule": "CC1CC1C(=O)OC[C@H](C)NC(=O)[C@H](N)CC(=O)O (stereo partly specified)", "Label Value": "class 1"}
{"Molecule": "CCCC(O)[C@H](NC(=O)[C@H](N)CC(=O)O)C(=O)OC (stereo in doubt; 57)", "Label Value": "class 1"}
{"Molecule": "N[C@H](CC(=O)O)C(=O)NCCC1CCCCC1", "Label Value": "class 1"}
{"Molecule": "CCCSC[C@@H](NC(=O)[C@H](N)CC(=O)O)C(=O)OC", "Label Value": "class 0"}
